Data provenance: patent US8455544B2

test system: IFNγ-induced NO production in RAW264.7 macrophages; assay: Suppression of IFNγ-induced NO production (Griess reagent system); assay type: cell-based; conditions: Mus musculus; RAW264.7, pre-treated 2 hours, then 20 ng/ml IFNγ for 24 hours
# Lookup of reported IC50 keyed by entry
The figure you give is taken to be in nM; do not add the unit.

Sample answers from the record:
[[record]]
smiles_data = "CCNC(=O)[C@]12CCC(C)(C)C[C@H]1[C@H]1C(=O)C=C3[C@@]4(C)C=C(C#N)C(=O)C(C)(C)[C@@H]4CC[C@@]3(C)[C@]1(C)CC2"
tested_on = "IFNγ-induced NO production in RAW264.7 macrophages"
measured_attribute = "IC50"
observed_value = 6

[[record]]
smiles_data = "CC1(C)CC[C@]2(C(=O)NCC(F)(F)F)CC[C@]3(C)[C@H](C(=O)C=C4[C@@]5(C)C=C(C#N)C(=O)C(C)(C)[C@@H]5CC[C@]43C)[C@@H]2C1"
tested_on = "IFNγ-induced NO production in RAW264.7 macrophages"
measured_attribute = "IC50"
observed_value = 5.8


Now consider the entry below.
# IC50 (molecule: `COC(=O)[C@]12CCC(C)(C)C[C@H]1[C@H]1C(=O)C=C3[C@@]4(C)C=C(C#N)C(=O)C(C)(C)[C@@H]4CC[C@@]3(C)[C@]1(C)CC2` ) is 2.2
